target: His-hMAGL (recombinant polyhistidine tagged human MAGL protein) (Homo sapiens); construct: made in house; host or cells: E. coli BL21(DE3); test: Measurement of MAGL inhibitory activity (arachidonic acid production from 2-arachidonylglycerol, RapidFire-mass spectrometry); format: biochemical; conditions: MAGL inhibitory rate at 10 μM test compound; 60 min preincubation with His-hMAGL, 2-arachidonylglycerol substrate, 10 min reaction at room temperature
outcome.measure: inhibition at 10 µM (%)

- molecule: "N#Cc1cc(C(F)(F)F)ccc1OCC1CCN(C(=O)c2cc3c(cc2F)OCC(=O)N3)CC1 [Example 68]"
  unit.info: "%"
  inhibition at 10 µM: 96
- molecule: "O=C1COc2cc(F)c(C(=O)N3CC(COc4ccccc4-c4ccccc4)C3)cc2N1 [Example 109]"
  unit.info: "%"
  inhibition at 10 µM: 103
- molecule: "O=C1COc2ccc(C(=O)N3CC(OCc4ccccc4)C3)cc2N1 [Example 326]"
  unit.info: "%"
  inhibition at 10 µM: 98
- molecule: "O=C1COc2cc(F)c(C(=O)N3CC(COc4ccc(Cl)cc4-c4ccc(F)nc4)C3)cc2N1 [Example 204]"
  unit.info: "%"
  inhibition at 10 µM: 100
- molecule: "Cc1nc(C)c(-c2cc(Cl)ccc2OCC2CN(C(=O)c3cc4c(cc3F)OCC(=O)N4)C2)s1 [Example 268]"
  unit.info: "%"
  inhibition at 10 µM: 101
- molecule: "O=C1COc2ccc(C(=O)N3CCC(COc4cccc5ccccc45)CC3)cc2N1 [Example 59]"
  unit.info: "%"
  inhibition at 10 µM: 102
- molecule: "O=C1COc2cc(F)c(C(=O)N3CC(COc4cc(Cl)cc(Cl)c4)C3)cc2N1 [Example 127]"
  unit.info: "%"
  inhibition at 10 µM: 99
- molecule: "O=C1COc2ccc(C(=O)N3CCC(F)(COc4ccc(F)cc4Cl)CC3)cc2N1 [Example 27]"
  unit.info: "%"
  inhibition at 10 µM: 101
- molecule: "O=C1COc2cc(F)c(C(=O)N3CCC(COc4ccc(Cl)nc4Cl)CC3)cc2N1 [Example 71]"
  unit.info: "%"
  inhibition at 10 µM: 100
- molecule: "O=C1COc2cc(F)c(C(=O)N3CC(COc4ccc(-c5ccc(F)nc5)cc4F)C3)cc2N1 [Example 238]"
  unit.info: "%"
  inhibition at 10 µM: 99
- molecule: "N#Cc1ccc(OCC2CN(C(=O)c3cc4c(cc3F)OCC(=O)N4)C2)c(Cl)c1 [Example 92]"
  unit.info: "%"
  inhibition at 10 µM: 99
- molecule: "O=C1COc2cc(F)c(C(=O)N3CC(COc4ccc(Cl)cc4-c4ccc(Cl)nc4)C3)cc2N1 [Example 205]"
  unit.info: "%"
  inhibition at 10 µM: 103
- molecule: "Cc1ccc(OCC2CCN(C(=O)c3ccc4c(c3)NC(=O)CO4)CC2)c(Cl)c1 [Example 36]"
  unit.info: "%"
  inhibition at 10 µM: 104
- molecule: "CC(C)c1ccccc1OCC1CN(C(=O)c2cc3c(cc2F)OCC(=O)N3)C1 [Example 160]"
  unit.info: "%"
  inhibition at 10 µM: 100
- molecule: "O=C1COc2cc(F)c(C(=O)N3CC(COc4ccc(-c5ccc6c(c5)CCO6)cc4F)C3)cc2N1 [Example 257]"
  unit.info: "%"
  inhibition at 10 µM: 99
- molecule: "O=C1COc2cc(F)c(C(=O)N3CC(COc4ccc(-c5ccc(C(F)(F)F)nc5)cc4F)C3)cc2N1 [Example 256]"
  unit.info: "%"
  inhibition at 10 µM: 98
- molecule: "O=C1COc2ccc(C(=O)N3CCC(COc4ccc(Cl)c(Cl)c4)CC3)cc2N1 [Example 43]"
  unit.info: "%"
  inhibition at 10 µM: 100
- molecule: "COc1ccccc1-c1ccccc1OCC1CN(C(=O)c2cc3c(cc2F)OCC(=O)N3)C1 [Example 174]"
  unit.info: "%"
  inhibition at 10 µM: 102
- molecule: "O=C1COc2cc(F)c(C(=O)N3CC(OCc4ccc5scnc5c4)C3)cc2N1 [Example 344]"
  unit.info: "%"
  inhibition at 10 µM: 99
- molecule: "O=C1COc2ccc(C(=O)N3CCC(COc4ccc(Cl)nc4Cl)CC3)cc2N1 [Example 41]"
  unit.info: "%"
  inhibition at 10 µM: 103
- molecule: "CC(C)(C)c1ccccc1OCC1CN(C(=O)c2ccc3c(c2)NC(=O)CO3)C1 [Example 146]"
  unit.info: "%"
  inhibition at 10 µM: 97
- molecule: "O=C1COc2cc(F)c(C(=O)N3CC(OCc4ccc(C(F)(F)F)c(F)c4)C3)cc2N1 [Example 351]"
  unit.info: "%"
  inhibition at 10 µM: 99
- molecule: "O=C1COc2cc(F)c(C(=O)N3CC(COc4ccc5c(c4)CCC5)C3)cc2N1 [Example 154]"
  unit.info: "%"
  inhibition at 10 µM: 95
- molecule: "O=C1COc2cc(F)c(C(=O)N3CC(COc4ccc(-c5ccncc5Cl)cc4F)C3)cc2N1 [Example 243]"
  unit.info: "%"
  inhibition at 10 µM: 101
- molecule: "O=C1COc2cc(F)c(C(=O)N3CC(COc4ccc(F)c(Cl)c4)C3)cc2N1 [Example 131]"
  unit.info: "%"
  inhibition at 10 µM: 101
- molecule: "Cc1cccc(COC2CN(C(=O)c3cc4c(cc3F)OCC(=O)N4)C2)c1 [Example 329]"
  unit.info: "%"
  inhibition at 10 µM: 100
- molecule: "O=C1COc2cc(F)c(C(=O)N3CC(COc4ccc(Cl)cc4F)C3)cc2N1 [Example 126]"
  unit.info: "%"
  inhibition at 10 µM: 102
- molecule: "Cc1nc2cc(OCC3CN(C(=O)c4cc5c(cc4F)OCC(=O)N5)C3)ccc2s1 [Example 151]"
  unit.info: "%"
  inhibition at 10 µM: 92
- molecule: "CC(Oc1cc(F)cc(F)c1)C1CN(C(=O)c2cc3c(cc2F)OCC(=O)N3)C1 (stereo not drawn) [Example 305]"
  unit.info: "%"
  inhibition at 10 µM: 100
- molecule: "Cc1nc2c(cc1C(=O)N1CCC(COc3ccc(F)cc3Cl)CC1)NC(=O)CO2 [Example 145]"
  unit.info: "%"
  inhibition at 10 µM: 88
- molecule: "Cc1nccc(-c2ccccn2)c1OCC1CN(C(=O)c2cc3c(cc2F)OCC(=O)N3)C1 [Example 177]"
  unit.info: "%"
  inhibition at 10 µM: 91
- molecule: "O=C1COc2cc(F)c(C(=O)N3CC(COc4ccc(Cl)cc4-c4ccnc(Cl)c4)C3)cc2N1 [Example 208]"
  unit.info: "%"
  inhibition at 10 µM: 98
- molecule: "O=C1COc2cc(F)c(C(=O)N3CC(COc4ccc(Cl)cc4-c4ccc(C(F)(F)F)nc4)C3)cc2N1 [Example 220]"
  unit.info: "%"
  inhibition at 10 µM: 102

====

Molecular target: His-hMAGL (recombinant polyhistidine tagged human MAGL protein) (Homo sapiens)
Construct: made in house; host or cells: E. coli BL21(DE3)
Sequence (Q99685 1-303): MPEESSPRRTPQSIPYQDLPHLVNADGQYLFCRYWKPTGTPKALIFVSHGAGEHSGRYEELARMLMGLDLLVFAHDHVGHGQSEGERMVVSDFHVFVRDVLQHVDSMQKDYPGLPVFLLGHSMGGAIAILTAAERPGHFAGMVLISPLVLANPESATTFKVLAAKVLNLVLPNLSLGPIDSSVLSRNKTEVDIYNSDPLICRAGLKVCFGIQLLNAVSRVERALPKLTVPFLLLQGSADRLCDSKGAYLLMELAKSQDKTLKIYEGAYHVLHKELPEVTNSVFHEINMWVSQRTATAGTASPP
Test: Measurement of MAGL inhibitory activity (arachidonic acid production from 2-arachidonylglycerol, RapidFire-mass spectrometry)
Format: biochemical
Conditions: MAGL inhibitory rate at 10 μM test compound; 60 min preincubation with His-hMAGL, 2-arachidonylglycerol substrate, 10 min reaction at room temperature
Experimental: Furthermore, acetonitrile (50 μL) containing 3 μM arachidonic acid-d8 (Cayman Chemical Company) was added and the mixture was stirred. The amount of arachidonic acid in the obtained enzyme reaction mixture was calculated by measuring by RapidFire-mass spectrometry and correcting by the amount of arachidonic acid-d8. […] MAGL inhibitory rate (%) was calculated according to the following calculation formula. […]
outcome.measure: inhibition at 10 µM (%)

- compound: "O=C1COc2ccc(C(=O)N3CCC(COc4ccccc4F)CC3)cc2N1"
  unit.info: "%"
  inhibition at 10 µM: 97
- compound: "O=C1COc2cc(Cl)c(C(=O)N3CCC(COc4ccc(F)cc4Cl)CC3)cc2N1"
  unit.info: "%"
  inhibition at 10 µM: 98
- compound: "O=C1COc2cc(F)c(C(=O)N3CC(COc4ccccc4C4CC4)C3)cc2N1"
  unit.info: "%"
  inhibition at 10 µM: 101
- compound: "Cc1cncc(-c2ccc(OCC3CN(C(=O)c4cc5c(cc4F)OCC(=O)N5)C3)c(F)c2)c1"
  unit.info: "%"
  inhibition at 10 µM: 99
- compound: "Cc1ccc(OCC2CCN(C(=O)c3ccc4c(c3)NC(=O)CO4)CC2)c(Cl)n1"
  unit.info: "%"
  inhibition at 10 µM: 95
- compound: "N#Cc1cccc(OCC2CCN(C(=O)c3cc4c(cc3F)OCC(=O)N4)CC2)c1Cl"
  unit.info: "%"
  inhibition at 10 µM: 102
- compound: "N#Cc1cccc(COC2CN(C(=O)c3cc4c(cc3F)OCC(=O)N4)C2)c1"
  unit.info: "%"
  inhibition at 10 µM: 98
- compound: "O=C1COc2cc(F)c(C(=O)N3CCC(COc4cccc(-c5ccccc5)c4)CC3)cc2N1"
  unit.info: "%"
  inhibition at 10 µM: 100
- compound: "O=C1COc2cnc(C(=O)N3CCC(COc4ccc(C(F)(F)F)cc4Cl)CC3)cc2N1"
  unit.info: "%"
  inhibition at 10 µM: 98
- compound: "O=C1COc2cc(F)c(C(=O)N3CC(COc4ccc(Cl)cc4-c4cccnc4Cl)C3)cc2N1"
  unit.info: "%"
  inhibition at 10 µM: 100
- compound: "CC(OC1CN(C(=O)c2cc3c(cc2F)OCC(=O)N3)C1)c1ccc(F)cc1 (stereo not drawn)"
  unit.info: "%"
  inhibition at 10 µM: 102
- compound: "O=C1COc2cc(F)c(C(=O)N3CC(COc4ccc(Cl)cc4-c4nnco4)C3)cc2N1"
  unit.info: "%"
  inhibition at 10 µM: 97
- compound: "Cc1cc(-c2ccc(OCC3CN(C(=O)c4cc5c(cc4F)OCC(=O)N5)C3)c(F)c2)n(C)n1"
  unit.info: "%"
  inhibition at 10 µM: 100
- compound: "O=C1COc2cc(F)c(C(=O)N3CC(COc4ccc(-c5ccc(F)cn5)cc4F)C3)cc2N1"
  unit.info: "%"
  inhibition at 10 µM: 94
- compound: "O=C1COc2cc(F)c(C(=O)N3CC(OCc4ccc(C(F)(F)F)cc4F)C3)cc2N1"
  unit.info: "%"
  inhibition at 10 µM: 101
- compound: "O=C1COc2ccc(C(=O)N3CCC(C(F)(F)c4ccc(F)cc4)CC3)cc2N1"
  unit.info: "%"
  inhibition at 10 µM: 101
- compound: "O=C1COc2cc(F)c(C(=O)N3CC(COCc4ccccc4)C3)cc2N1"
  unit.info: "%"
  inhibition at 10 µM: 95
- compound: "O=C1COc2ccc(C(=O)N3CCC(COc4cc(F)ccc4Cl)CC3)cc2N1"
  unit.info: "%"
  inhibition at 10 µM: 97
- compound: "Cn1cccc1-c1ccc(OCC2CN(C(=O)c3cc4c(cc3F)OCC(=O)N4)C2)c(F)c1"
  unit.info: "%"
  inhibition at 10 µM: 102
- compound: "Cc1cc(-c2cc(Cl)ccc2OCC2CN(C(=O)c3cc4c(cc3F)OCC(=O)N4)C2)n(C)n1"
  unit.info: "%"
  inhibition at 10 µM: 102
- compound: "Cc1cc(-c2cc(Cl)ccc2OCC2CN(C(=O)c3cc4c(cc3F)OCC(=O)N4)C2)nn1C"
  unit.info: "%"
  inhibition at 10 µM: 104
- compound: "Cc1cc(Cl)ccc1OCC1CN(C(=O)c2cc3c(cc2F)OCC(=O)N3)C1"
  unit.info: "%"
  inhibition at 10 µM: 101
- compound: "Cc1ccc(OCC2CN(C(=O)c3cc4c(cc3F)OCC(=O)N4)C2)cc1F"
  unit.info: "%"
  inhibition at 10 µM: 101
- compound: "O=C1COc2cc(F)c(C(=O)N3CC(OCc4ccc(N5CC(F)C5)cc4Cl)C3)cc2N1"
  unit.info: "%"
  inhibition at 10 µM: 100
- compound: "O=C1COc2cc(F)c(C(=O)N3CC(OCc4ccc(Cl)cc4)C3)cc2N1"
  unit.info: "%"
  inhibition at 10 µM: 102
- compound: "O=C1COc2cc(F)c(C(=O)N3CC(COc4cc(F)ccc4Cl)C3)cc2N1"
  unit.info: "%"
  inhibition at 10 µM: 99
- compound: "N#Cc1cc(Cl)ccc1OCC1CCN(C(=O)c2cc3c(cc2F)OCC(=O)N3)CC1"
  unit.info: "%"
  inhibition at 10 µM: 100
- compound: "O=C(c1ccc2ccc(=O)[nH]c2c1)N1CCC(COc2ccc(F)cc2Cl)CC1"
  unit.info: "%"
  inhibition at 10 µM: 103
- compound: "O=C1COc2cc(F)c(C(=O)N3CC(COc4ccc(Cl)cc4-c4ccncc4Cl)C3)cc2N1"
  unit.info: "%"
  inhibition at 10 µM: 101
- compound: "O=C1COc2cc(F)c(C(=O)N3CC(COc4ccc(Cl)cc4-c4cccnc4)C3)cc2N1"
  unit.info: "%"
  inhibition at 10 µM: 99
- compound: "Cn1nccc1-c1ccc(OCC2CN(C(=O)c3cc4c(cc3F)OCC(=O)N4)C2)c(F)c1"
  unit.info: "%"
  inhibition at 10 µM: 102
- compound: "O=C1COc2cc(F)c(C(=O)N3CC(COc4ccc(-c5ccc(Cl)cn5)cc4F)C3)cc2N1"
  unit.info: "%"
  inhibition at 10 µM: 88
- compound: "O=C1COc2ncc(C(=O)N3CCC(COc4ccc(Cl)cc4Cl)CC3)cc2N1"
  unit.info: "%"
  inhibition at 10 µM: 101
